B1: MMP1 (parent)
chain: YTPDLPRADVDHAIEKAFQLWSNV

Variants of: B1
Assay explanation: protein stability index of a GFP-peptide fusion (GPS, HEK-293T) (PSI 1-6); higher = more stable;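 also: lentivirally expressed fusions sorted by FACS into six bins by GFP to DsRed ratio, PSI derived from sequencing read proportions per bin multiplied by bin number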
Experimental conditions: c terminus: a fixed tail appended
The label depends only on protein stability index: criterion met if it is at least 2, criterion not met if it is smaller.

See these solved cases before continuing.
IN: Exam item: decide whether the reported protein stability index for E15I is at least 2.
OUT: criterion met

IN: Exam item: decide whether the reported protein stability index for A17Q is at least 2.
OUT: criterion not met

IN: Exam item: decide whether the reported protein stability index for F18E is at least 2.
OUT: criterion met

IN: Exam item: decide whether the reported protein stability index for T2C is at least 2.
OUT: criterion not met

IN: Exam item: decide whether the reported protein stability index for A17T is at least 2.
OUT: criterion met

---
IN: Exam item: decide whether the reported protein stability index for P6F is at least 2.
OUT: criterion not met
